Reported selectivity ratio values follow for various molecules
- Test description: Selectivity index, ratio of cytotoxic CC50 for HEK293 cells to cytotoxic CC50 for human Hep2 cells
- Assay type: toxicity
- Condition context: HEK293 cells versus Hep2 cells, read-out: Selectivity Index
Recorded endpoint: selectivity ratio

CC(=O)O[C@@]12CO[C@@H]1C[C@H](O)[C@@]1(C)C(=O)[C@H](O)C3=C(C)[C@@H](OC(=O)[C@H](O)[C@@H](NC(=O)OC(C)(C)C)c4ccccc4)C[C@@](O)([C@@H](OC(=O)c4ccccc4)[C@H]21)C3(C)C [DOCETAXEL ANHYDROUS]: 26.6
C=C(C)[C@@H]1CC[C@]2(C(=O)O)CC[C@]3(C)[C@H](CC[C@@H]4[C@@]5(C)CC[C@H](O)C(C)(C)[C@@H]5CC[C@]43C)[C@@H]12 [BETULINIC ACID]: 1.6

* * *

- Test description: Selectivity index, ratio of cytotoxic CC50 for African green monkey Vero cells to cytotoxic CC50 for human MCF7 cells
- Assay type: toxicity
- Condition context: Vero cells versus MCF7 cells, read-out: Selectivity Index
Recorded endpoint: selectivity ratio

C=C(C)[C@@H]1CC[C@]2(C(=O)O)CC[C@]3(C)[C@H](CC[C@@H]4[C@@]5(C)CC[C@H]6OC(C)(C)OC[C@]6(C)[C@@H]5CC[C@]43C)[C@@H]12: 5
C=C(C)[C@@H]1CC[C@]2(C(=O)O)CC[C@]3(C)[C@H](CC[C@@H]4[C@@]5(C)CC[C@@H](O)C(C)(C)[C@@H]5CC[C@]43C)[C@@H]12 [EPIBETULINIC ACID]: 0.7
CC(=O)O[C@@]12CO[C@@H]1C[C@H](O)[C@@]1(C)C(=O)[C@H](O)C3=C(C)[C@@H](OC(=O)[C@H](O)[C@@H](NC(=O)OC(C)(C)C)c4ccccc4)C[C@@](O)([C@@H](OC(=O)c4ccccc4)[C@H]21)C3(C)C [DOCETAXEL ANHYDROUS]: 130
C=C(C)[C@@H]1CC[C@]2(C(=O)O)CC[C@]3(C)[C@H](CC[C@@H]4[C@@]5(C)CC[C@@H](O)[C@](C)(CO)[C@@H]5CC[C@]43C)[C@@H]12: 3
C=C(C)[C@@H]1CC[C@]2(C(=O)O)CC[C@]3(C)[C@H](CC[C@@H]4[C@@]5(C)CC[C@H](O)C(C)(C)[C@@H]5CC[C@]43C)[C@@H]12 [BETULINIC ACID]: 0.7

* * *

- Test description: Selectivity index, ratio of cytotoxic CC50 for HEK293 cells to cytotoxic CC50 for human HeLa cells
- Assay type: toxicity
- Condition context: HEK293 cells versus HeLa cells, read-out: Selectivity Index
Recorded endpoint: selectivity ratio

CC(=O)O[C@@]12CO[C@@H]1C[C@H](O)[C@@]1(C)C(=O)[C@H](O)C3=C(C)[C@@H](OC(=O)[C@H](O)[C@@H](NC(=O)OC(C)(C)C)c4ccccc4)C[C@@](O)([C@@H](OC(=O)c4ccccc4)[C@H]21)C3(C)C [DOCETAXEL ANHYDROUS]: 17.7
C=C(C)[C@@H]1CC[C@]2(C(=O)O)CC[C@]3(C)[C@H](CC[C@@H]4[C@@]5(C)CC[C@H](O)C(C)(C)[C@@H]5CC[C@]43C)[C@@H]12: 2.5
